- Test system: PC-3
- PROTOCOL_DETAILS: NCI 60 single concentration growth inhibition
- Format: cell-based, human
- COND: Homo sapiens, PC-3, Prostate cancer, read-out: GI%
Please enter true where inhibition at 10 µM is greater than or equal to 60%, and false where it is lower.

[[record]]
molecule = "COc1ccc(-c2nc3cc(Cl)c(Cl)cc3n2CC(=O)NN=Cc2ccc(O)c(OC)c2)cc1 [Compound 10l]"
classification = "false"

[[record]]
molecule = "COC(=O)COc1ccc(C=NNC(=O)Cn2c(-c3ccc(OC)cc3)nc3cc(Cl)c(Cl)cc32)cc1 [Compound 10h]"
classification = "true"

[[record]]
molecule = "COc1ccc(-c2nc3cc(Cl)c(Cl)cc3n2CC(=O)NN=Cc2cccc(O)c2)cc1 [Compound 10a]"
classification = "false"

[[record]]
molecule = "COc1ccc(C=NNC(=O)Cn2c(-c3ccc(OC)cc3)nc3cc(Cl)c(Cl)cc32)cc1 [Compound 10d]"
classification = "true"

[[record]]
molecule = "COC(=O)COc1cccc(C=NNC(=O)Cn2c(-c3ccc(OC)cc3)nc3cc(Cl)c(Cl)cc32)c1 [Compound 10g]"
classification = "false"


Has COc1ccc(-c2nc3cc(Cl)c(Cl)cc3n2CC(=O)NN=Cc2ccc(OC)c(O)c2)cc1 [Compound 10k] a recorded inhibition at 10 µM greater than or equal to 60%? false

For this molecule, is measured inhibition at 10 µM 60% or higher? COC(=O)COc1cc(C=NNC(=O)Cn2c(-c3ccc(OC)cc3)nc3cc(Cl)c(Cl)cc32)ccc1OC [Compound 10o] false

---

- System: LOX IMVIL
- PROTOCOL_DETAILS: NCI 60 single concentration growth inhibition
- Assay type: cell-based, human
- COND: Homo sapiens, Melanoma, read-out: GI%
Returns class 1 if the recorded inhibition at 10 µM is greater than or equal to 30%, and class 0 otherwise.

Solved entries:
[[record]]
compound = "COC(=O)COc1ccc(C=NNC(=O)Cn2c(-c3ccc(OC)cc3)nc3cc(Cl)c(Cl)cc32)cc1OC [Compound 10p]"
classification = "class 0"

[[record]]
compound = "COC(=O)COc1ccc(C=NNC(=O)Cn2c(-c3ccc(OC)cc3)nc3cc(Cl)c(Cl)cc32)cc1 [Compound 10h]"
classification = "class 1"

[[record]]
compound = "COc1ccc(-c2nc3cc(Cl)c(Cl)cc3n2CC(=O)NN=Cc2ccc(O)c(OC)c2)cc1 [Compound 10l]"
classification = "class 1"


Determine whether measured inhibition at 10 µM meets or exceeds 30% for COC(=O)COc1cccc(C=NNC(=O)Cn2c(-c3ccc(OC)cc3)nc3cc(Cl)c(Cl)cc32)c1 [Compound 10g] class 0

Threshold query (inhibition at 10 µM >= 30%) on COc1ccc(-c2nc3cc(Cl)c(Cl)cc3n2CC(=O)NN=Cc2cccc(O)c2)cc1 [Compound 10a] class 0

// inclusive: inhibition at 10 µM at least 30%? input: COc1ccc(-c2nc3cc(Cl)c(Cl)cc3n2CC(=O)NN=Cc2ccc(O)cc2)cc1 [Compound 10b] class 1

Exam item: decide whether the reported inhibition at 10 µM for COc1ccc(C=NNC(=O)Cn2c(-c3ccc(OC)cc3)nc3cc(Cl)c(Cl)cc32)cc1 [Compound 10d] is at least 30%. class 0

Please tell me: is the compound COc1ccc(-c2nc3cc(Cl)c(Cl)cc3n2CC(=O)NN=Cc2ccc(OCC(=O)O)cc2)cc1 [Compound 10f] at or over 30% in terms of inhibition at 10 µM? class 0

Kindly determine if inhibition at 10 µM recorded for COc1ccc(-c2nc3cc(Cl)c(Cl)cc3n2CC(=O)NN=Cc2cccc(OCC(=O)O)c2)cc1 [Compound 10e] is above or exactly 30%. class 0

Dear colleague, could you confirm whether COc1ccc(-c2nc3cc(Cl)c(Cl)cc3n2CC(=O)NN=Cc2ccc(OC)c(O)c2)cc1 [Compound 10k] has inhibition at 10 µM at or above 30%? class 1

Quick check, inhibition at 10 µM >= 30%? CCOC(=O)C(C)Oc1ccc(C=NNC(=O)Cn2c(-c3ccc(OC)cc3)nc3cc(Cl)c(Cl)cc32)cc1 (stereo not shown) [Compound 10j] class 0

// inclusive: inhibition at 10 µM at least 30%? input: COC(=O)COc1cc(C=NNC(=O)Cn2c(-c3ccc(OC)cc3)nc3cc(Cl)c(Cl)cc32)ccc1OC [Compound 10o] class 1
